- measuredOn: integrin protein αvβ3 (Homo sapiens, UniProt P05106+P06756)
- Sequence (P06756 31-1048): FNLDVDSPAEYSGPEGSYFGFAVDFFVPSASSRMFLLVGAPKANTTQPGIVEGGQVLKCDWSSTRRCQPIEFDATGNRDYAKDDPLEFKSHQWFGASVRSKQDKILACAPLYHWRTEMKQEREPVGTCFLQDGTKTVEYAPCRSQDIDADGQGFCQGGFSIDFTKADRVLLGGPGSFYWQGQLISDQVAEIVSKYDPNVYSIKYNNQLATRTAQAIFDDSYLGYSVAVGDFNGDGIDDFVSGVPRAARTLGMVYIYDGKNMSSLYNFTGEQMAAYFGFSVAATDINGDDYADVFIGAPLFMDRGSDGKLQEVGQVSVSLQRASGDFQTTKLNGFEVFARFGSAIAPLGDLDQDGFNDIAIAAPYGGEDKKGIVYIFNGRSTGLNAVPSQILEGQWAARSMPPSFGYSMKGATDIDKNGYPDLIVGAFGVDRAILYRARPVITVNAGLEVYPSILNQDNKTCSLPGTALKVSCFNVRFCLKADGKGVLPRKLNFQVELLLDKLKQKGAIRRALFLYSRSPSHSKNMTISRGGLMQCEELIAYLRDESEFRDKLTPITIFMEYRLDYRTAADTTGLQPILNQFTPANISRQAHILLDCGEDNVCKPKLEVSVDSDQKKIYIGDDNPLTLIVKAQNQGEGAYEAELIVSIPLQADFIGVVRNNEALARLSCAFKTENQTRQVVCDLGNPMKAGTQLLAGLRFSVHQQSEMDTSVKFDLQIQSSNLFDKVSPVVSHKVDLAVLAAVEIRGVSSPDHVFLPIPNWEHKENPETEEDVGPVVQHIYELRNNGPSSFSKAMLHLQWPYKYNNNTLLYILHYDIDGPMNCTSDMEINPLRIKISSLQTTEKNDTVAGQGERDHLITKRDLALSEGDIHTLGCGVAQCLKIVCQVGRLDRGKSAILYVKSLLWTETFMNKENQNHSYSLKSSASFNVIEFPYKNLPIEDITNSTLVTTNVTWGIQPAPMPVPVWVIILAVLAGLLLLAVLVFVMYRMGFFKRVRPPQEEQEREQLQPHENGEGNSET
- Sequence (P05106 27-788): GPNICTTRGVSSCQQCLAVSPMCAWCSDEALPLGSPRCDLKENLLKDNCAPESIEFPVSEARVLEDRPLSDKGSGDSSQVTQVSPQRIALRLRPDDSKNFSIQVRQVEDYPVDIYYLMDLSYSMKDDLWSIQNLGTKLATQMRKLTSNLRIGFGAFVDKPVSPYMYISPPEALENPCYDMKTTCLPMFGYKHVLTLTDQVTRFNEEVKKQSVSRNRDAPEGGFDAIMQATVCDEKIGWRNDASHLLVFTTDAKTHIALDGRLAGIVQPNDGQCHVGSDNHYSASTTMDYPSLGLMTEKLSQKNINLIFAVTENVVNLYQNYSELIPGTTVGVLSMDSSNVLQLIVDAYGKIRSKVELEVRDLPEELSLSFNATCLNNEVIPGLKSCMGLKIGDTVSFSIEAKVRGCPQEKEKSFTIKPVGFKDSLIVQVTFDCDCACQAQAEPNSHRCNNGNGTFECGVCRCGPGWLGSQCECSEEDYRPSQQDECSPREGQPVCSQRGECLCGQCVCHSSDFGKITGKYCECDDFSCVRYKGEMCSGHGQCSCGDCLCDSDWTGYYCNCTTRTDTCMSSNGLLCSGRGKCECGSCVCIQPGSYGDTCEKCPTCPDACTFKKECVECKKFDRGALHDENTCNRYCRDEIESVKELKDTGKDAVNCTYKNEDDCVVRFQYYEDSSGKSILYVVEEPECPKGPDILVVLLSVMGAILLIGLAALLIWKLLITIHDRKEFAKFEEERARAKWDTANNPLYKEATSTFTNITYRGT
- experimentDescription: Affinity test by surface plasmon resonance (Biacore 8K)
- Format: binding
- measurementParameters: stated in summary text; read-out: KD value interacting with the protein αvβ3
reportedEndpoint: pKd
# log scale: pKd equals minus log10 of the concentration in mol/L

Lookup: What pKd value was documented for this compound, O=C(N/N=C/c1cccc(O)c1)c1n[nH]c2c1CCCC2 [Formula (5)] ?
Found: 6.80

---

- measuredOn: integrin protein αvβ3 (Homo sapiens, UniProt P05106+P06756)
- experimentDescription: Affinity test by surface plasmon resonance (Biacore 8K)
- Assay type: binding
- measurementParameters: SPR, immobilized integrin αvβ3, 25° C.; read-out: KD affinity
reportedEndpoint: Kd (µM)
Numbers only; they are read as µM.

Lookup: What Kd value was documented for this compound, `COc1ccc(/C=N/NC(=O)c2n[nH]c3c2CCCC3)cc1O` ?
Found: 0.78

Lookup: What Kd value was documented for this compound, `O=C(N/N=C/c1c(O)cc(O)cc1O)c1n[nH]c2c1CCCC2` ?
Found: 2.15

Lookup: What Kd value was documented for this compound, `COc1ccc(/C=N/NC(=O)c2n[nH]c3c2CCCC3)cc1OC` ?
Found: 10.1
